PROTOCOL_DESCRIPTION: Pharmacokinetic study in rats
COND: rat, plasma, po, 3 mg/kg
MEASURE_NAME: AUC(0-t) at 24 h (ng·h/mL)
Report the value in ng·h/mL with no unit label.

// query What measured AUC(0-t) at 24 h goes with CCC(=O)N1CCN2c3cc(OC)c(Nc4ncc(Cl)c(Nc5cccnc5N5CCCC5=O)n4)cc3OC[C@H]2C1 ?
// result 581

// query What value of AUC(0-t) at 24 h has been reported for the following compound? CCc1cc2c(cc1Nc1ncc(C(F)(F)F)c(NCCCN3CCCCC3=O)n1)OC[C@H]1CN(C3CCN(C)CC3)CCN21
// result 1080

// query Tell me the measured AUC(0-t) at 24 h of CCc1cc2c(cc1Nc1ncc(C(F)(F)F)c(NCCCN3CCOCCC3=O)n1)OC[C@H]1CNCCN21 , please.
// result 880

// query State the recorded AUC(0-t) at 24 h for this entry: COc1cc2c(cc1Nc1ncc(C(F)(F)F)c(CCc3ccccc3CC(N)=O)n1)OC[C@H]1CN(C)CCN21
// result 2330

// query AUC(0-t) at 24 h lookup needed for CNC(=O)c1ccccc1Nc1cc(Nc2cc3c(cc2OC)N2CCN(C4CN(C)C4)C[C@H]2CO3)ncc1C(F)(F)F , thanks.
// result 1660

// query # get_value(readout='AUC(0-t) at 24 h', item= COc1cc2c(cc1Nc1ncc(Cl)c(Nc3cccnc3N3CCCC3=O)n1)OC[C@H]1CN(C3CN(C)C3)CCN21 )
// result 3170

// query Using the record for CCc1cc2c(cc1Nc1ncc(C(F)(F)F)c(NCCCN3CCOCCC3=O)n1)OC[C@H]1CN(C3CCN(C)CC3)CCN21 , report its AUC(0-t) at 24 h.
// result 1940

Every entry's value here was drawn from patent EP4653444A1.
